Source listed as patent US11505548B2.

- Tested on: microfilariae of Dirofilaria immitis
- assay name: Dirofilaria immitis, Microfilaria (DiMF) Assay
- Assay type: cell-based
- assay context: read-out: D. immitis activity level (IC50 or MED)
Please provide measured IC50 for the entries that follow.

For the 4 compounds below, give their IC50 values.
1. CN(C)c1cccnc1Nc1nc(-c2ccc(OC(F)F)cn2)ns1 [Compound 120]
2. Cc1cccnc1Nc1nc(-c2ccc(OC(C)C)cn2)ns1 [Compound 19]
3. CCOc1cnc(-c2nsc(Nc3ncccc3N(C)C(C)=O)n2)cc1C(F)(F)F [Compound 228]
4. CC(C)Oc1cnc(-c2nsc(Nc3ncc(C(C)C)cc3C(F)(F)F)n2)cc1C(N)=O [Compound 221]

Resp:
1: 500 to 5000 nM; 2: < 200 nM; 3: 500 to 5000 nM; 4: 200 to 500 nM
